Entries and their MIC B. subtilis ATCC 6633
System: Bacillus subtilis ATCC 6633
Assay type: cell-based
run-parameters: ATCC 6633, 20 h
Description: The minimal inhibitory concentration (MIC) of all screened peptides were determined by the microbroth dilution method. […]
Ends that are not written are not given here.
measured-metric: MIC B. subtilis ATCC 6633

> print(dat)
                              item.sequence            measured.metric  observed
1        KLAKLLKLLLWAQNELDQKK [Peptide 623]  MIC B. subtilis ATCC 6633   8 µg/mL
2  KKIASIIYAHVKALRARKILDNLKRLAANRP [Peptide 615]  MIC B. subtilis ATCC 6633  16 µg/mL
3       GFKSKLEQISGICRPLFAAMWK [Peptide 68]  MIC B. subtilis ATCC 6633  64 µg/mL
4         IYKILQLFHKRFKKGFFG [Peptide 1304]  MIC B. subtilis ATCC 6633   4 µg/mL
5        AKLVALVNKFIGYLKQNTYC [Peptide 201]  MIC B. subtilis ATCC 6633  32 µg/mL
6         GPIHRLINPFFNLLQGIFTN [Peptide 98]  MIC B. subtilis ATCC 6633  32 µg/mL
7        KVKVLIIRKLTRHIAKLKSKK [Peptide 58]  MIC B. subtilis ATCC 6633   8 µg/mL
